Measured values drawn from PubChem BioAssay (EPA / NIEHS) for this set.

# ASSAY_PROCEDURE: ATG_SREBP_CIS: Attagene CIS-FACTORIAL HepG2 Assay for human Sterol Regulatory Element Binding (SREBP) (AID 2282962)
# APPLIED_CONDITIONS: HepG2 Attagene cis-factorial SREBP reporter, mRNA; actives raise or lower the signal
Calls of active or inactive are those of the source. The calls were made as follows: active = hit-call score of the fitted dose curve at least 0.9, where 1 is the maximum; inactive = score below 0.9.
Field 'call' accepts active, inactive

Outcome? "O=C(O)C(F)(F)C(F)(F)C(F)(F)C(F)(F)C(F)(F)F"
inactive

For this compound, state the assay outcome: "Nc1ccc(-c2ccc(N)cc2)cc1"
inactive

I would be grateful if you could indicate the recorded call for "O=C(NC(=O)c1c(F)cccc1F)Nc1cc(Cl)c(OC(F)(F)C(F)F)c(Cl)c1" .
inactive

Which result was noted for this compound in the test: "Cc1cc(-c2ccc(N)c(C)c2)ccc1N"
inactive

Entry "CCNc1nc(NC(C)C)nc(SC)n1" : call = ?
inactive

// outcome(item) with item = "Sc1ccccc1"
inactive

Any idea what this test logged for "Cc1ccccc1O" ?
inactive

Recorded call for "O=C(O)C(F)(F)C(F)(F)C(F)(F)C(F)(F)C(F)(F)C(F)(F)C(F)(F)C(F)(F)C(F)(F)F" ?
inactive

Look up the recorded call for "CCCN(CCC)N=O" in this test.
inactive

What is the recorded call for this compound in the test? "O=C(NC(=O)c1cc(F)c(F)cc1Cl)Nc1cc(F)ccc1N1CCC(C(=O)O)CC1"
active

For this compound, state the assay outcome: "Oc1ccc(Cl)cc1Cl"
inactive

State the result this test recorded for "CC(c1ccc(O)cc1)(c1ccc(O)cc1)c1ccc(O)cc1" .
active

Fill in: this test's call for "Cc1cccc([N+](=O)[O-])c1" is ___
inactive

* * *

# ASSAY_SYSTEM: human Serotonin, 5-Hydroxytryptamine Receptor 7 (5HT7), HTR7 (gene 3363)
# ASSAY_PROCEDURE: NVS_GPCR_h5HT7: NovaScreen (NVS) G Protein-Coupled Receptor Assay for human Serotonin, 5-Hydroxytryptamine Receptor 7 (5HT7) (AID 2283255);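 also: hits reduce specific radioligand binding relative to DMSO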
Records with an inconclusive call do not appear. Active and inactive are the calls of the source. Rule for the calls: active = hit-call score of the fitted dose curve at least 0.9, where 1 is the maximum; inconclusive = response in the unintended direction; inactive = score below 0.9.
Would you mind answering with one of these outcomes? true (active), false (inactive)

Fill in: this test's call for "C[C@]12CCC(=O)C=C1CC[C@@H]1[C@@H]2CC[C@]2(C)C(=O)CC[C@@H]12" is ___
false

// return assay outcome for "CCC(C)(c1ccc(O)cc1)c1ccc(O)cc1"
true

So what was the verdict on "Oc1ccc(C(c2ccc(O)cc2)(C(F)(F)F)C(F)(F)F)cc1" in this test?
true

Hi, do you know how "Cc1cc2c3c(c1)C(c1ccccc1)=N[C@@H](NC(=O)c1ccncc1)C(=O)N3CC2" came out in this test?
true

In this assay, the call recorded for "O=C(O)C(F)(F)C(F)(F)C(F)(F)C(F)(F)C(F)(F)C(F)(F)C(F)(F)C(F)(F)C(F)(F)F" was what?
true

* * *

# Read-out: Cytochrome P450 3A4 (Homo sapiens)
# ASSAY_PROCEDURE: LTEA_HepaRG_CYP3A4: Life Technologies and Expression Analysis (LTEA) Assay for CYP3A4 using HepaRG (AID 2283487)
# APPLIED_CONDITIONS: mRNA level, 48 h; actives raise or lower the signal
The source made the active and inactive calls. The calls were made as follows: active = hit-call score of the fitted dose curve at least 0.9, where 1 is the maximum; inactive = score below 0.9.
QUANTITY_MEASURED: AC50

Sample answers from the record:
{"columns": ["COMPOUND", "AC50"],
 "data": [
  ["CCC(C)c1cc([N+](=O)[O-])cc([N+](=O)[O-])c1O (centres undefined)", "2.37 µM (active)"],
  ["CCCCCCCCCC[N+](C)(C)CCCCCCCCCC", "63.1 µM (active)"],
  ["Cc1cc(O)ccc1Cl", "inactive"],
  ["O=C(N[C@H]1CN2CCC1CC2)c1cc2ccoc2cn1", "inactive"],
  ["Oc1ccc(C(c2ccc(O)cc2)(C(F)(F)F)C(F)(F)F)cc1", "81.7 µM (active)"]
]}

Look up AC50: "N#Cc1ccc(N(CC(N)=O)CC(F)(F)F)cc1C(F)(F)F"
inactive

Name the recorded AC50 for "Nc1ccc(-c2ccc(N)cc2)cc1" .
inactive
